Tested on: mPer2Luc MEF
assay_summary: PER2::LUC luminescence relative to vehicle control (fold of vehicle); higher = higher PER2::LUC reporter signal
test_parameters: time after treatment: 30-hour; concentration: 0.04μM
measured_endpoint: PER2::LUC luminescence
Numbers only.

# compound, measurement
rows = [
    ("CCOc1cc2ncc(C#N)c(Nc3ccc(F)c(Cl)c3)c2cc1NC(=O)/C=C/CN(C)C [Pelitinib (EKB-569)]", 0.836),
]

Kindly give each listed record's PER2::LUC luminescence.
1. C/C(=C\C(=O)Nc1ccccc1C(=O)O)c1ccc2ccccc2c1
2. OCc1ccc(-c2ccc(-c3ccc(CO)s3)o2)s1
3. CCc1nc(-c2cccc(C)c2)c(-c2ccnc(NC(=O)c3ccccc3)c2)s1
4. C[C@@H](O[C@H]1OCCN(Cc2nn(P(=O)(O)O)c(=O)[nH]2)[C@H]1c1ccc(F)cc1)c1cc(C(F)(F)F)cc(C(F)(F)F)c1 [Fosaprepitant dimeglumine]
5. Cc1nc(Nc2ncc(C(=O)Nc3c(C)cccc3Cl)s2)cc(N2CCN(CCO)CC2)n1
6. CNC(=O)c1cc(Oc2ccc(NC(=O)Nc3cc(C(C)(C)C)nn3-c3ccc4ncccc4c3)c(F)c2)ccn1
7. COc1cc(NC(=O)c2ccc(-c3ccc(Cl)cc3)o2)cc(OC)c1

*A*
0.94
1.62
0.926
0.978
0.368
1.72
0.83

----------
Tested on: mPer2Luc MEF
assay_summary: PER2::LUC luminescence relative to vehicle control (fold of vehicle); higher = higher PER2::LUC reporter signal
test_parameters: time after treatment: 30-hour; concentration: 0.04μM
Counter-ions that a name gives are not always drawn.
Task for the reader: assign each of the following molecules its reported PER2::LUC luminescence.
One number for each entry.

# molecule, measurement
rows = [
    ("NCC(=O)N1C[C@H](NC(=O)c2ccccc2)C[C@H]1C(=O)O [GAP-134 (Hydrochloride)]", 1.04),
]

Kindly give each listed record's PER2::LUC luminescence.
1. COc1cc(C(=O)N2CCC(N3CCN(C)CC3)CC2)ccc1Nc1ncc2c(n1)N(C)c1ccccc1C(=O)N2C
2. O=C(NC1CC1)c1cc(-c2cccs2)on1 [N-cyclopropyl-5-(thiophen-2-yl)-1,2-oxazole-3-carboxamide]
3. COc1cc(OC)cc(C(=O)Nc2ccc(Cl)c(-c3nc4ccc(N(C)C)cc4[nH]3)c2)c1
4. CN1CCN(S(=O)(=O)c2ccc(-c3cnc(N)c(C(=O)Nc4cccnc4)n3)cc2)CC1

*A*
[0.817, 1.37, 0.988, 0.938]

----------
Task for the reader: assign each of the following molecules its reported PER2::LUC luminescence.
Test system: mPer2Luc MEF
assay_summary: PER2::LUC luminescence relative to vehicle control (fold of vehicle); higher = higher PER2::LUC reporter signal
test_parameters: time after treatment: 30-hour; concentration: 0.37μM
One number for each entry.

Some solved cases for reference:
# chemical_smiles, measured_endpoint, measurement
rows = [
    ("Cc1ccc([C@@H]2O[C@H](CO)[C@@H](O)[C@H](O)[C@H]2O)cc1Cc1ccc(-c2ccc(F)cc2)s1", "PER2::LUC luminescence", 0.996),
    ("CC(C)(C)c1ccc(-c2nc3ccccc3[nH]2)cc1", "PER2::LUC luminescence", 0.204),
    ("COc1cc2c(Oc3ccc4[nH]c(C)cc4c3F)ncnc2cc1OCCCN1CCCC1", "PER2::LUC luminescence", 0.496),
]

Here is another molecule to look at.
Reported PER2::LUC luminescence for `COc1cc(C(=O)N2CCC(N3CCN(C)CC3)CC2)ccc1Nc1ncc2c(n1)N(C)c1ccccc1C(=O)N2C` was 0.716
